biological target: human recombinant DGK ξ (Homo sapiens (Human)); experiment: Evaluation of DGK ξ inhibitory effect (ADP-Glo Kinase Assay); details: ADP-Glo luminescence
Sequence (Q13574 whole entry): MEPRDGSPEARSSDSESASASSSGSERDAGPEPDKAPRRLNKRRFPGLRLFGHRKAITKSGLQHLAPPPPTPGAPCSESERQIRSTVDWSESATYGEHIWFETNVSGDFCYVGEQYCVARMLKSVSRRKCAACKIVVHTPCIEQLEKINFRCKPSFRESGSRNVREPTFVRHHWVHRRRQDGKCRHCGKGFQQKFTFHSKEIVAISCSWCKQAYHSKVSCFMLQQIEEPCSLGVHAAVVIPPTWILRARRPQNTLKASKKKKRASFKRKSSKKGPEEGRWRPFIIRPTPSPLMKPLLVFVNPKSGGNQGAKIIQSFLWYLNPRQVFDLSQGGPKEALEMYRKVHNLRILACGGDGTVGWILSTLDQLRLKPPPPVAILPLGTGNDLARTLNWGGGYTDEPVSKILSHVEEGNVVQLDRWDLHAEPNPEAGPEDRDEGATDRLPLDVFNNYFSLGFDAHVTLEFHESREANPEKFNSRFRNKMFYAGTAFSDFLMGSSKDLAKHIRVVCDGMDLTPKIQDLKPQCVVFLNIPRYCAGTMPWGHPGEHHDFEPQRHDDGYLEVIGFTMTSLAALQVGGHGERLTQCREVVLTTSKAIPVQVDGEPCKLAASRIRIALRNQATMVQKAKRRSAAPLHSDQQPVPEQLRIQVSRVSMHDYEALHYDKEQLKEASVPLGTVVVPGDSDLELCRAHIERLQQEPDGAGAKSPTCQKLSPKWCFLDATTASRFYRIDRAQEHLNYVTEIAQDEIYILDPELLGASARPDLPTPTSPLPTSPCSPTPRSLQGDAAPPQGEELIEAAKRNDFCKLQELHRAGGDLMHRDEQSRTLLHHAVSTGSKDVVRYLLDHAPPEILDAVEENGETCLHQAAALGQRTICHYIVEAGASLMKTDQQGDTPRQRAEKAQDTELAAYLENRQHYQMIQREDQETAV
We label by threshold. Values of IC50 strictly beneath 0.03 µM are Met. Values of 0.03 µM and up are Not met.

Task: Determine if CNC[C@H]1CN(c2c(NC(=O)c3ccn(-c4ccnnc4)n3)ccc(OC3CCC3)c2C(F)(F)F)CCN1C [Example 99] shows IC50 strictly lower than 0.03 µM.
Result: Not met

Task: Say whether its IC50 is strictly beneath 0.03 µM. Entry: CNC[C@H]1CN(c2c(NC(=O)c3ccn(CC(F)F)n3)ccc(Oc3ccccc3F)c2F)CCN1C [Example 25]
Result: Not met

Task: Problem: For the compound CN(C)[C@@H]1CCN2CCN(c3c(NC(=O)c4ccn(-c5ccnnc5)n4)ccc(Oc4ccccc4F)c3C(F)(F)F)C[C@@H]12 [Example 118] , is IC50 under 0.03 µM?
Result: Met

Task: Given the entry O=C(Nc1ccc(OC2CCC2)c(C(F)(F)F)c1-c1cnn(C2CCNCC2)c1)c1coc(-c2ccnnc2)n1 [Example 71] , would its reported IC50 be below 0.03 µM?
Result: Met

Task: Regarding NC[C@@H]1CCCN(c2c(NC(=O)c3ccn(-c4ccnnc4)n3)ccc(Oc3ccccc3Cl)c2C(F)(F)F)C1 [Example 33] , kindly confirm whether its IC50 is beneath 0.03 µM.
Result: Met

Task: Hello, I'm reviewing records and need to know if IC50 of O=C(Nc1ccc(OC2CC2)c(C(F)(F)F)c1-c1cnn(C2CCNCC2)c1)c1ccn(-c2ccnnc2)n1 [Example 72] is below 0.03 µM. Could you check?
Result: Not met

Task: Given CNCCOc1cccc(-c2c(NC(=O)c3coc(-c4ccnnc4)n3)ccc(OC3CC3)c2C(F)(F)F)c1 [Example 66] , is recorded IC50 strictly lower than 0.03 µM?
Result: Not met

Task: Please determine if Cc1cn(-c2ccnnc2)nc1C(=O)Nc1ccc(Oc2ccccc2F)c(C(F)(F)F)c1N1CCC[C@@H](CN)C1 [Example 39] is below 0.03 µM in terms of IC50.
Result: Not met

Task: Is IC50 of Cc1cc(C(=O)Nc2ccc(Oc3ccccc3Cl)c(C(F)(F)F)c2N2CCC[C@@H](CN)C2)nn1-c1ccnnc1 [Example 91] strictly below 0.03 µM?
Result: Met

Task: Lab note: IC50 threshold 0.03 µM. Does this compound come in strictly under it? CNCCOc1cc(-c2c(NC(=O)c3coc(-c4ccnnc4)n3)ccc(OC3CC3)c2C(F)(F)F)ccn1 [Example 70]
Result: Not met

Task: Given the entry CN1CCN(c2c(NC(=O)c3ccn(-c4ccnnc4)n3)ccc(Oc3ccccc3F)c2C(F)(F)F)C[C@H]1CN [Example 54] , would its reported IC50 be below 0.03 µM?
Result: Met

Task: IC50 strictly < 0.03 µM for this compound? CNC[C@H]1CN(c2c(NC(=O)c3coc(-c4ccnnc4)n3)ccc(Oc3ccccc3Cl)c2Cl)CCN1C [Example 93]
Result: Met

Task: Please let me know if CNC[C@H]1CN(c2c(NC(=O)c3ccn(-c4ccnnc4)n3)ccc(OC3CCCC3)c2C(F)(F)F)CCN1C [Example 44] shows IC50 below 0.03 µM.
Result: Met

====

biological target: human recombinant DGK ξ (Homo sapiens (Human)); test: Evaluation of DGK ξ inhibitory effect (ADP-Glo Kinase Assay); conditions: ADP-Glo luminescence
RECORDED METRIC: pIC50
By convention, pIC50 is the negative base-10 log of a molar concentration.

Task: Give human recombinant DGK ξ (Homo sapiens (Human)) pIC50 for CNC[C@H]1CN(c2c(NC(=O)c3ccn(CC(F)F)n3)cc(F)c(Oc3ccccc3)c2F)CCN1C [Example 107]
Result: 6.66

Task: Param readout= pIC50; system= human recombinant DGK ξ (Homo sapiens (Human)); entry= NC[C@@H]1CCCN(c2c(NC(=O)c3cccn(CC(F)(F)F)c3=O)ccc(Oc3ccccc3)c2C(F)(F)F)C1 [Example 110] ; returns value.
Result: 6.72

Task: # returns recorded pIC50 (system: human recombinant DGK ξ (Homo sapiens (Human))) for CN1CCN(c2c(NC(=O)c3ccn(-c4ccnnc4)n3)ccc(Oc3ccccc3Cl)c2Cl)C[C@@H]1CN [Example 56]
Result: 9.05

Task: Hi! What's the reported pIC50 for CN1CCN(c2c(NC(=O)c3ccn(-c4ccnnc4)n3)ccc(OC3CCC3)c2C(F)(F)F)C[C@@H]1CN [Example 51] on human recombinant DGK ξ (Homo sapiens (Human))?
Result: 7.77

Task: Request body: readout pIC50, system human recombinant DGK ξ (Homo sapiens (Human)), query N#Cc1ccccc1Oc1ccc(NC(=O)c2ccn(CC(F)F)n2)c(N2CCC[C@@H](CN)C2)c1C(F)(F)F [Example 32] . Return the value.
Result: 7.00

Task: Give pIC50 (human recombinant DGK ξ (Homo sapiens (Human))) of the following compound: CN[C@@H]1CCN2CCN(c3c(NC(=O)c4ccn(-c5ccnnc5)n4)ccc(Oc4ccccc4F)c3C(F)(F)F)C[C@@H]12 [Example 78]
Result: 8.89

Task: Requested read-out pIC50, target or system human recombinant DGK ξ (Homo sapiens (Human)), entry CN1CCN(c2c(NC(=O)c3coc(-c4ccnnc4)n3)ccc(Oc3ccc(F)cc3)c2C(F)(F)F)C[C@@H]1CN [Example 53]
Result: 7.54
